Kindly state TGI for each of the entries shown.
System: COLO 205 colon
protocol.notes: NCI tumour cell line growth inhibition, 48 h

Query block: Fill in: TGI of COC1=C(C)C(=O)C2=C(C1=O)C1C3CC4=C(C(=O)C(OC)=C(C)C4=O)C(CNC(=O)C(C)O)N3C(C#N)C(C2)N1C (centres undefined) is ___
Result block: < 0.01 µM

Query block: Fill in: TGI of O=[N+]([O-])/C=C(\CS(=O)(=O)c1ccccc1)c1ccc2c(c1)OCO2 is ___
Result block: > 100 µM

Query block: Fill in: TGI of C=C(C)[C@H]1C2=CC(C)=C(O2)[C@@H](O)[C@H](C(=C)C)CCC2=C[C@H]1OC2=O is ___
Result block: > 100 µM

Query block: Fill in: TGI of COc1ccc2oc(-c3ccc(OC)c(OC)c3OC)cc(=O)c2c1 is ___
Result block: > 100 µM

###

Tested on: SF-295 CNS
protocol.notes: NCI tumour cell line growth inhibition, 48 h
Kindly state TGI for each of the entries shown.

Query block: Fill in: TGI of O=C(O)c1c2c(cc3c1CC1(Cc4cc5c(cc4C1=O)CCC5)C3)CCC2 (stereo not drawn) is ___
Result block: > 100 µM

Query block: Fill in: TGI of CCSc1nc(=S)n(-c2ccccc2)c(C)c1C(C)=O is ___
Result block: > 100 µM

Query block: Fill in: TGI of COc1cc(C(C)c2cc3c(cc2OCCNC(=O)COc2cc4c(cc2C(C)c2cc(OC)c(OC)c(OC)c2)OCO4)OCO3)cc(OC)c1OC (stereo not drawn) is ___
Result block: > 100 µM

###

Kindly state TGI for each of the entries shown.
System: HOP-62 NSCLC
protocol.notes: NCI tumour cell line growth inhibition, 48 h

Query block: Fill in: TGI of COc1ccc(/C(C#N)=C/c2cc(OC)c(OC)c(OC)c2)cc1 is ___
Result block: > 100 µM

Query block: Fill in: TGI of Cc1ccc2nc3cc(C)c(=O)cc-3sc2c1 is ___
Result block: > 100 µM

Query block: Fill in: TGI of Cc1c(Cl)cccc1NC(=O)/C=C/c1ccccc1 is ___
Result block: > 100 µM

###

Test system: NCI-H23 lung
protocol.notes: NCI tumour cell line growth inhibition, 48 h
metric.name: TGI

Query block: Fill in: TGI of O=C(c1cccs1)N1CCCN(C(=O)c2cccs2)C1=S is ___
Result block: > 100 µM

Query block: Fill in: TGI of Cc1nc(N)nc(N)c1CCCc1ccccc1 is ___
Result block: > 100 µM

Query block: Fill in: TGI of CC1=NOC(=O)/C1=C/c1ccc([N+](=O)[O-])cc1 is ___
Result block: > 100 µM

Query block: Fill in: TGI of O=c1[nH]nc(Nc2ccccc2)c2nnn(C3CCCCC3)c12 is ___
Result block: > 100 µM

Query block: Fill in: TGI of COc1cc(C2C3=C(CCCC3=O)N(c3ccc(C)cc3)C3=C2C(=O)CCC3)c([N+](=O)[O-])cc1OC is ___
Result block: > 100 µM

Query block: Fill in: TGI of Cc1ccc(S(=O)(=O)c2ccc(C)cc2[N+](=O)[O-])cc1 is ___
Result block: > 100 µM

Query block: Fill in: TGI of COC(=O)C(Cc1c[nH]c2ccccc12)NP(=O)(O)OCC1OC(n2cc(Br)c(=O)[nH]c2=O)CC1O (stereo not drawn) is ___
Result block: > 100 µM

Query block: Fill in: TGI of NCCCNOCCCN is ___
Result block: > 100 µM

Query block: Fill in: TGI of O=C(C/C(=N/O)C(F)(F)F)c1cccs1 is ___
Result block: > 100 µM

Query block: Fill in: TGI of Nc1ccc(COC(O)CN2CCCCC2)cc1[N+](=O)[O-] (stereo not drawn) is ___
Result block: > 100 µM

Query block: Fill in: TGI of CCCN(CCC)C(=O)c1nc(N)nc(-c2ccc(OC)cc2)c1-c1ccc(OC)cc1 is ___
Result block: > 100 µM

Query block: Fill in: TGI of O=P(Nc1ccccc1)(Oc1ccccc1)N(CCCl)CCCl (stereo not drawn) is ___
Result block: > 100 µM

Query block: Fill in: TGI of C#C[C@@]1(O)CCCC2=CC3(CC[C@]21C)SCCS3 is ___
Result block: > 100 µM

Query block: Fill in: TGI of Cc1cc(S(=O)(=O)Nc2nncn2-c2ccc(Cl)cc2)c(S)cc1Cl is ___
Result block: > 10 µM

Query block: Fill in: TGI of COc1c(Br)cc2ccccc2c1-c1c(OC)c(Br)cc2ccccc12 is ___
Result block: > 100 µM

Query block: Fill in: TGI of COC(=O)Nc1nc2ccc(C(=O)c3ccccc3)cc2[nH]1 is ___
Result block: > 100 µM

Query block: Fill in: TGI of CCCCCCCCP(=O)(O)OP(=O)(O)OCC1OC(n2ccc(N)nc2=O)C(O)C1O (stereo not drawn) is ___
Result block: > 100 µM

Query block: Fill in: TGI of Cc1c(Cl)cccc1N=NC(=O)NNc1cccc(Cl)c1C is ___
Result block: 33.2 µM

Query block: Fill in: TGI of C=CC(C)C1(CCCOCc2ccccc2)C(=S)N2CCC3(CC24CCCC14)OCCO3 (stereo not drawn) is ___
Result block: > 100 µM

Query block: Fill in: TGI of CO/N=C(\C([O-])=N\[n+]1cnn(CC(=O)OC(C)(C)C)c1)c1csc(NC(c2ccccc2)(c2ccccc2)c2ccccc2)n1 is ___
Result block: > 10 µM

Query block: Fill in: TGI of COc1cccc2cc(C(=O)Nc3ccccc3)c(=N)oc12 is ___
Result block: > 100 µM

Query block: Fill in: TGI of COc1cc(C(=O)O[C@H](C(=O)NCCN(C)CCNC(=O)[C@@H](OC(=O)c2cc(OC)cc3c(C)cccc23)[C@]2(C)CO2)[C@]2(C)CO2)c2cccc(C)c2c1 is ___
Result block: 0.0137 µM

Query block: Fill in: TGI of CC(=O)C(C(C)=O)[C@@H]1OC(C)(C)O[C@@H]1[C@H]1COC(C)(C)O1 is ___
Result block: > 100 µM

Query block: Fill in: TGI of CC([C@H]1CC=C2C3CCC4=C[C@@H](N(C)C)CC[C@]4(C)C3CC[C@@]21C)N(C)C (stereo partly drawn) is ___
Result block: 14.8 µM

Query block: Fill in: TGI of CCCCc1ccc(Nc2nc(Cl)c3ccn(C4CC(Oc5ccc(C)cc5)C(COc5ccc(C)cc5)O4)c3n2)cc1 (stereo not drawn) is ___
Result block: 30.8 µM

Query block: Fill in: TGI of COC(=O)c1c2c(cc3c1CC1(Cc4cc5c(c(C(C)=O)c4C1)CCCC5)C3)CCCC2 (stereo not drawn) is ___
Result block: > 100 µM

Query block: Fill in: TGI of CN(O)C(=O)CCCC(=O)NCC(C)(C)CNC(=O)CCCC(=O)N(C)O is ___
Result block: > 100 µM

Query block: Fill in: TGI of COC1=C(Cl)C(=O)c2c(O)ccc(O)c2C1=O is ___
Result block: 4.62 µM

Query block: Fill in: TGI of C=C1SC(=Nc2ccccc2Cl)N(C(=O)c2sc3ccccc3c2Cl)C12CCCCC2 is ___
Result block: > 100 µM

Query block: Fill in: TGI of ClCc1ccccc1Cn1cnc2c(Cl)ncnc21 is ___
Result block: 4.34 µM

Query block: Fill in: TGI of Cc1ccc2c(c1)C(=O)c1c-2c(OCCCN(C)C)nc2ccccc12 is ___
Result block: 4.48 µM

Query block: Fill in: TGI of COC1=CC(=O)C=C(OC)C1=O is ___
Result block: 22.7 µM

Query block: Fill in: TGI of O=C(CI)Nc1ccc(O)c2ccccc12 is ___
Result block: 3.69 µM
